Reference source for all entries: patent US20250059171A1

pIC50: −log10 of the molar value.
Please consider the recorded pIC50 for MERS-CoV 3CLpro (Middle East respiratory syndrome-related coronavirus, UniProt K9N7C7) in what follows.
reported-metric: pIC50

compound	reported-metric	reported
CC1(C)[C@@H]2[C@@H](C(=O)NN(C[C@@H]3CCNC3=O)C(=O)[C@H](F)Cl)N(C(=O)[C@H](Cc3ccccc3)NC(=O)C(F)(F)F)C[C@@H]21 [Example 20]	pIC50	6.97
CC(C)(C)[C@H](NC(=O)C(F)(F)F)C(=O)N1C[C@@H]2C[C@@H]2[C@H]1C(=O)NN(C[C@@H]1CCNC1=O)C(=O)[C@H](F)Cl [Example 9]	pIC50	5.56
CC[C@H](C)[C@H](NC(=O)c1ccccc1)C(=O)N1C[C@@H]2CCC[C@@H]2[C@H]1C(=O)NN(C[C@@H]1CCNC1=O)C(=O)[C@H](F)Cl [Example 80]	pIC50	7.24
CC[C@@H](C)[C@H](NC(=O)C1CC(F)(F)C1)C(=O)N1C[C@@H]2CCC[C@@H]2[C@H]1C(=O)NN(C[C@@H]1CCNC1=O)C(=O)[C@H](F)Cl [Example 128]	pIC50	7.01
CC1(C)[C@@H]2[C@@H](C(=O)NN(C[C@@H]3CCNC3=O)C(=O)[C@H](F)Cl)N(C(=O)c3cc(C(F)(F)F)cc(C(F)(F)F)c3)C[C@@H]21 [Example 177]	pIC50	6.56
CC(C)(C)[C@H](NC(=O)C(F)(F)F)C(=O)N1C[C@@H]2CCC[C@@H]2[C@H]1C(=O)NN(C[C@@H]1CCNC1=O)C(=O)[C@@H](F)Cl [Example 102]	pIC50	6.68
C[C@@H]1C[C@@H](C(=O)NN(C[C@@H]2CCNC2=O)C(=O)[C@H](F)Cl)N(C(=O)[C@@H](NC(=O)C(F)(F)F)C(C)(C)C)C1 [Example 7]	pIC50	6.42
CC(C)(C)[C@H](NC(=O)C(F)(F)C(F)(F)F)C(=O)N1C[C@H]2[C@@H]([C@H]1C(=O)NN(C[C@@H]1CCNC1=O)C(=O)[C@H](F)Cl)C2(C)C [Example 22]	pIC50	6.74
CC[C@H](C)[C@H](NC(=O)[C@H](F)Cl)C(=O)N1C[C@H]2[C@@H]([C@H]1C(=O)NN(C[C@@H]1CCCNC1=O)C(=O)[C@H](F)Cl)C2(C)C [Example 188]	pIC50	7.17
CCC(C)(C)[C@H](NC(=O)C(F)F)C(=O)N1C[C@@H]2CCC[C@@H]2[C@H]1C(=O)NN(C[C@@H]1CCNC1=O)C(=O)[C@@H](F)Cl [Example 153]	pIC50	6.60
CC[C@H](C)[C@H](NC(=O)C(F)(F)F)C(=O)N1C[C@H]2[C@@H]([C@H]1C(=O)NN(C[C@@H]1CCNC1=O)C(=O)[C@H](F)Cl)C2(C)C [Example 63]	pIC50	7.22
